- System: SN12C
- Protocol notes: NCI tumour cell line growth inhibition, 48 h
Active and inactive are the calls of the source. No stated cut-off is given here; in the data, active = GI50 up to about 1.1 µM and inactive = higher.
Answer with one of the outcomes given here: true (1) = active, false (0) = inactive

// known answers, use as guide
1) O=C(N/C(=C\c1ccccc1O)c1nc2ccccc2[nH]1)c1ccccc1 false (0)
2) COc1c2c(cc3nc4ccccc4nc13)CC[C@H](NC(C)=O)c1cc(=O)c(SC)ccc1-2 false (0)
3) CC(=O)Nc1ccc(-c2nnc(SCC(=O)Nc3ccccc3Cl)o2)cc1 false (0)
4) O=C(O)[C@@H](NS(=O)(=O)c1ccc([N+](=O)[O-])cc1)c1ccccc1 false (0)

In the following, a different compound is considered.
// param item: `CC1(C)N=C(N)N=C(N)N1c1ccc(CCCCCCc2ccc(S(=O)(=O)F)cc2)cc1` ; yields the recorded call true (1)
